B1: BTBD10 (parent)
chain: DRKLHSRPRKLYKHSSTSSRIAKG

# Variants of: B1
# TEST_SUMMARY: protein stability index of a GFP-peptide fusion (GPS, HEK-293T) (PSI 1-6); higher = more stable;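 further: lentivirally expressed fusions sorted by FACS into six bins by GFP to DsRed ratio, PSI derived from sequencing read proportions per bin multiplied by bin number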
# CONDITION_SET: c terminus: a fixed tail appended
PROPERTY_NAME: protein stability index
In your answer, state the number alone without any accompanying words.

The cases that follow already have their protein stability index on record.
1. K10C 3.55
2. R20T 4.13
3. S18Q 3.95

Lookup result for S15Y ; measured protein stability index: 3.67

What the record says about G24N : protein stability index is 4.3

Given item L4S , the value recorded as its protein stability index is 4.71

Entry S6Q , protein stability index reported as 3.89

# protein stability index of L4N = 3.77

Please fill in: protein stability index reported for A22H = 3.58

The variant listed as R7A shows protein stability index equal to 3.98

The variant identified as R9S registered its protein stability index at 4.47
